Listed next: entries and their corresponding growth inhibition.
- Measurement Notes: inhibition of 3D7 malaria parasite growth – strain 3D7 (AID 2306);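 further: 0% = DMSO wells and 100% = chloroquine plus artemisinin control wells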
- Stated Conditions: P. falciparum 3D7 erythrocytic growth, LDH absorbance, 72 h; at 2 µM; stronger effect = higher value
Write it as a number; the unit % goes unstated.

Answer with the recorded growth inhibition for the molecule listed here: "CC(=O)Oc1c(C2CCN(CCCCNC(=O)c3ccc(NC(=O)c4ccc(Cl)cc4)cc3)CC2)ccc2c1CCCC2"
100

Provide only the value of recorded growth inhibition for "O=S(=O)(c1csc2ccccc12)N(CCC(O)(C(F)(F)F)C(F)(F)F)Cc1cccc(O)c1"
101

Give recorded growth inhibition. "COc1c(CNCCCCCCNCc2c(OC)c(OC)c3ccccc3c2OC)c(OC)c2ccccc2c1OC"
96

Report measured growth inhibition; entry is "CCOc1ccc(C=CC(=O)Nc2ccc3nc(N4CCN(C)CC4)cc(C)c3c2)cc1OC"
102

For the molecule "Cc1cccc2[nH]c(-c3cccc(-c4cccc(NC(=O)c5cnccc5C(F)(F)F)c4)c3)nc12" , give its measured growth inhibition value.
98

Supply growth inhibition value. Item: "Cc1nc(NC2=NCN(CCCN3CCOCC3)CN2)nc2c(C)cccc12"
89

State its growth inhibition: "CCN(CC)Cc1cc(NC(=O)c2ccccc2O)ccc1Oc1ccc(Cl)cc1"
98

Return value of growth inhibition for input "COc1cc(F)c2ncc(Cl)c(CCN3CCC(NCc4ccc5c(c4)NC(=O)CS5)CC3)c2c1" , no commentary.
100

Supply reported growth inhibition belonging to this molecule: "COc1cc2nc(N3CCC(CNC(=O)c4ccc(-c5ccc(C(=O)N(C)C)cc5C)cc4)CC3)nc(N3CCN(C)CC3)c2cc1OC"
88

These data points were gathered from PubChem BioAssay.
